Data provenance: patent US11964990B2

# ASSAY NAME: Bioavailability study: pharmacokinetics after single intravenous or oral dose in mouse
# Assay type: in vivo
# EXPERIMENTAL CONTEXT: male, CD-1, mouse, plasma, iv, 1 mg/kg, IV 1 mg/kg, individual animal
OUTCOME MEASURE: MRT (h)

SMILES RECORD	ENDPOINT VALUE
CO[C@@H]1CC[C@@H](CNc2ccc(S(=O)(=O)NC(=O)c3ccc(N4CCN5CC6=C(c7ccc(Cl)cc7)CC(C)(C)C[C@H]6OCCCOC[C@@H]5C4)cc3N3CCCOc4nc5[nH]ccc5cc43)cc2[N+](=O)[O-])OC1	12

====

# Tested on: Molt-4 cells
# ASSAY NAME: Cell viability counter screen assay (CellTiter-Glo) in Molt-4 cells
# Assay type: cell-based
# EXPERIMENTAL CONTEXT: 24 hours, 10% Human Serum, 50% decrease in cell viability
# Text: The acute lymphoblastic leukemia (ALL) human cell line RS4;11 (ATCC, Manassas VA) was used as the primary human cell line to assess the cellular activity of compound of the present Examples in vitro and their efficacy in vivo. BH3 profiling, a mitochondrial assay that classifies blocks in the intrinsic apoptotic pathway, has shown that RS4;11 cells were highly dependent on Bcl-2 protein for survival and were sensitive to a Bcl-2 inhibitor (Blood. 2008; 111(4):2300-2309). […]

COMPOUND	TARGET DESC	UNIT NAME	OP	EC50
CC1(C)CC(c2ccc(Cl)cc2)=C2CN3CCN(c4ccc(C(=O)NS(=O)(=O)c5ccc(NCC6CCOCC6)c([N+](=O)[O-])c5)c(N5CCCOc6nc7[nH]ccc7cc65)c4)C[C@H]3COCCCO[C@@H]2C1	Molt-4 cells	nM	>	10000
CC1(C)CC(c2ccc(Cl)cc2)=C2CN3CCN(c4ccc(C(=O)NS(=O)(=O)c5ccc(OC[C@H]6CC[C@](C)(O)CC6)c([N+](=O)[O-])c5)c(N5CCCOc6nc7[nH]ccc7cc65)c4)C[C@H]3COCCCO[C@@H]2C1	Molt-4 cells	nM	=	2270
C[C@@H]1CO[C@@H](CNc2ccc(S(=O)(=O)NC(=O)c3ccc(N4CCN5CC6=C(c7ccc(Cl)cc7)CC(C)(C)C[C@H]6OCCCOC[C@@H]5C4)cc3N3CCCOc4nc5[nH]ccc5cc43)cc2[N+](=O)[O-])CO1	Molt-4 cells	nM	=	1910
CC1(C)CC(c2ccc(Cl)cc2)=C2CN3CCN(c4ccc(C(=O)NS(=O)(=O)c5cnc(OC[C@]6(F)CC[C@@H](N7CCOCC7)CC6)c(Cl)c5)c(N5CCCOc6nc7[nH]ccc7cc65)c4)C[C@H]3COCCCO[C@@H]2C1	Molt-4 cells	nM	=	1560
CC1(C)CC(c2ccc(Cl)cc2)=C2CN3CCN(c4ccc(C(=O)NS(=O)(=O)c5ccc(NCC6(O)COC6)c([N+](=O)[O-])c5)c(N5CCCOc6nc7[nH]ccc7cc65)c4)C[C@H]3COCCCO[C@@H]2C1	Molt-4 cells	nM	=	723
COC[C@]1(F)C[C@H](CNc2ccc(S(=O)(=O)NC(=O)c3ccc(N4CCN5CC6=C(c7ccc(Cl)cc7)CC(C)(C)C[C@H]6OCCCOC[C@@H]5C4)cc3N3CCCOc4nc5[nH]ccc5cc43)cc2[N+](=O)[O-])C1	Molt-4 cells	nM	>	10000
CC1(C)CC(c2ccc(Cl)cc2)=C2CN3CCN(c4ccc(C(=O)NS(=O)(=O)c5ccc(OCC6(F)CCN(C7COC7)CC6)c([N+](=O)[O-])c5)c(N5CCCOc6nc7[nH]ccc7cc65)c4)C[C@H]3COCCCO[C@@H]2C1	Molt-4 cells	nM	=	132
COC1CO[C@H](CNc2ccc(S(=O)(=O)NC(=O)c3ccc(N4CCN5CC6=C(c7ccc(Cl)cc7)CC(C)(C)C[C@H]6OCCCOC[C@@H]5C4)cc3N3CCCOc4nc5[nH]ccc5cc43)cc2[N+](=O)[O-])C1 (some centres unmarked)	Molt-4 cells	nM	=	1890
CC1(C)CC(c2ccc(Cl)cc2)=C2CN3CCN(c4ccc(C(=O)NS(=O)(=O)c5ccc(NC[C@H]6CC[C@@](C)(O)CC6)c([N+](=O)[O-])c5)c(N5CCCOc6nc7[nH]ccc7cc65)c4)C[C@H]3COCCCO[C@@H]2C1	Molt-4 cells	nM	=	117
CC1(C)CC(c2ccc(Cl)cc2)=C2CN3CCN(c4ccc(C(=O)NS(=O)(=O)c5ccc(NCC6CCCCO6)c([N+](=O)[O-])c5)c(N5CCCOc6nc7[nH]ccc7cc65)c4)C[C@H]3COCCCO[C@@H]2C1 (some centres unmarked)	Molt-4 cells	nM	>	10000
CO[C@H]1C[C@H](CNc2ccc(S(=O)(=O)NC(=O)c3ccc(N4CCN5CC6=C(c7ccc(Cl)cc7)CC(C)(C)C[C@H]6OCCCOC[C@@H]5C4)cc3N3CCCOc4nc5[nH]ccc5cc43)cc2[N+](=O)[O-])C1	Molt-4 cells	nM	>	10000
CC1(C)CC(c2ccc(Cl)cc2)=C2CN3CCN(c4ccc(C(=O)NS(=O)(=O)c5cnc(OC[C@H]6CC[C@](C)(O)CC6)c(Cl)c5)c(N5CCCOc6nc7[nH]ccc7cc65)c4)C[C@H]3COCCCO[C@@H]2C1	Molt-4 cells	nM	>	10000
CC1(C)CC(c2ccc(Cl)cc2)=C2CN3CCN(c4ccc(C(=O)NS(=O)(=O)c5ccc(NC[C@H]6COCCO6)c([N+](=O)[O-])c5)c(N5CCCOc6nc7[nH]ccc7cc65)c4)C[C@H]3COCCCO[C@@H]2C1	Molt-4 cells	nM	=	1410
CC1(C)CC(c2ccc(Cl)cc2)=C2CN3CCN(c4ccc(C(=O)NS(=O)(=O)c5ccc(NC[C@H]6C[C@](O)(CF)C6)c([N+](=O)[O-])c5)c(N5CCCOc6nc7[nH]ccc7cc65)c4)C[C@H]3COCCCO[C@@H]2C1	Molt-4 cells	nM	=	1260
CC1(C)CC(c2ccc(Cl)cc2)=C2CN3CCN(c4ccc(C(=O)NS(=O)(=O)c5cnc(OCC6(F)CCOCC6)c(Cl)c5)c(N5CCCOc6nc7[nH]ccc7cc65)c4)C[C@H]3COCCCO[C@@H]2C1	Molt-4 cells	nM	>	10000
CC1(C)CC(c2ccc(Cl)cc2)=C2CN3CCN(c4ccc(C(=O)NS(=O)(=O)c5ccc(OC[C@H]6CC[C@@](C)(O)CC6)c([N+](=O)[O-])c5)c(N5CCCOc6nc7[nH]ccc7cc65)c4)C[C@H]3COCCCO[C@@H]2C1	Molt-4 cells	nM	=	36
CC1(C)CC(c2ccc(Cl)cc2)=C2CN3CCN(c4ccc(C(=O)NS(=O)(=O)c5cnc(OC[C@]6(F)CC[C@H](N7CCOCC7)CC6)c(Cl)c5)c(N5CCCOc6nc7[nH]ccc7cc65)c4)C[C@H]3COCCCO[C@@H]2C1	Molt-4 cells	nM	=	3710
